test-target: recombinant Human Phosphodiesterase B2 (PDE4B2) (Homo sapiens)
Sequence (Q07343 1-564 isoform Q07343-2): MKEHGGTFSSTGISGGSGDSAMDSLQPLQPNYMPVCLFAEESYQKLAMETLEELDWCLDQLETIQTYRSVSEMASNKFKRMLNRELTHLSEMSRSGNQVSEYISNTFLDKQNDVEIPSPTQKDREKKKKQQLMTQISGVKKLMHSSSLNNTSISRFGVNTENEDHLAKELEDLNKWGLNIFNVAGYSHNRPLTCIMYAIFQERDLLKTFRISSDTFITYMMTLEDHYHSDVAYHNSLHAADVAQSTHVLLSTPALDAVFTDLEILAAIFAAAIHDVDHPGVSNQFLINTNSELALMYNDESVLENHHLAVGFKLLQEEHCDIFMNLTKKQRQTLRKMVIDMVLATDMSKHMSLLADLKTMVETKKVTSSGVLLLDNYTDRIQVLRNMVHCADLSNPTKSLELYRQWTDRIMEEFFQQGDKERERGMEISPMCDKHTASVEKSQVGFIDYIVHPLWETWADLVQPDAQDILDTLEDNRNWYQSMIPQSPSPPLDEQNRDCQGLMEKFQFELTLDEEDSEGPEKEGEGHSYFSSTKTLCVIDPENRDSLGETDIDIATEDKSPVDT
run-description: Human Phosphodiesterase B2 Radiometric Assay (yttrium silicate SPA beads, [3H]cyclic AMP)
Format: biochemical
details: recombinant human PDE4B2, radiometric SPA assay, 8 nM [3H]cyclic AMP; read-out: PDE4B2 pIC50 (converted)
Exercise: for every item that follows, state its recorded log10(IC50).
Quick note: numbers are log10 of IC50, with nM as the unit.

**Query** Check the records and state log10(IC50) for CC(C)NCCc1ccc(-c2cccc(-n3c(=O)n([C@H]4CC[C@@H](NC(=O)c5cn6cc(F)ccc6n5)CC4)c(=O)c4cc(F)cnc43)c2)cc1
**Result** -0.90

**Query** Check the records and state log10(IC50) for NC1(C(=O)N[C@H]2CC[C@@H](n3c(=O)c4cc(F)cnc4n(-c4cccc(-c5ccccc5)c4)c3=O)CC2)CC1
**Result** -0.40

**Query** Check the records and state log10(IC50) for C[C@H]1CN(Cc2ccc(-c3cccc(-n4c(=O)n([C@H]5CC[C@@H](NC(=O)c6cn7cc(F)ccc7n6)CC5)c(=O)c5cc(F)cnc54)c3)cc2)CCN1 (relative stereo)
**Result** -2.10

**Query** Check the records and state log10(IC50) for CC(C)N1CCN(Cc2ccc(-c3cccc(-n4c(=O)n([C@H]5CC[C@@H](NC(=O)c6cn7c(n6)CCCC7)CC5)c(=O)c5cc(F)cnc54)c3)cc2)CC1
**Result** -2.10

**Query** Check the records and state log10(IC50) for O=c1c2cc(F)cnc2n(-c2cccc(-c3ccc(O)cc3CN3CCOCC3)c2)c(=O)n1[C@H]1CC[C@@H](NCc2cc(F)ccc2F)CC1
**Result** -0.10

**Query** Check the records and state log10(IC50) for Cc1cc(O)ccc1-c1cccc(-n2c(=O)n([C@H]3CC[C@@H](NC(=O)c4cn5cc(F)ccc5n4)CC3)c(=O)c3cc(F)cnc32)c1
**Result** -1.40

**Query** Check the records and state log10(IC50) for O=C(N[C@H]1CC[C@@H](n2c(=O)c3cc(F)cnc3n(-c3cccc(-c4ccc(C(F)(F)F)cc4)c3)c2=O)CC1)c1cn2cc(F)ccc2n1
**Result** -1.10

**Query** Check the records and state log10(IC50) for O=C(N[C@H]1CC[C@@H](n2c(=O)c3cc(F)cnc3n(-c3cccc(-c4ccc(CN5CCN(CCO)CC5)cc4)c3)c2=O)CC1)c1cn2c(n1)CCCC2
**Result** -1.50

**Query** Check the records and state log10(IC50) for CN(Cc1cc(O)ccc1-c1cccc(-n2c(=O)n([C@H]3CC[C@@H](NCc4cn5cc(F)ccc5n4)CC3)c(=O)c3cc(F)cnc32)c1)CC1CC1
**Result** 0.30

**Query** Check the records and state log10(IC50) for CCCCN(C)Cc1ccc(-c2cccc(-n3c(=O)n([C@H]4CC[C@@H](NC(=O)c5cn6c(n5)CCCC6)CC4)c(=O)c4cc(F)cnc43)c2)cc1
**Result** -1.60

**Query** Check the records and state log10(IC50) for CN(C)CCCOc1cc(F)ccc1-c1cccc(-n2c(=O)n([C@H]3CC[C@@H](NC(=O)c4cn5cc(F)ccc5n4)CC3)c(=O)c3cc(F)cnc32)c1
**Result** -0.70

**Query** Check the records and state log10(IC50) for CCN(CC)CCOc1ccc(CN(C(C)=O)[C@H]2CC[C@@H](n3c(=O)c4cc(F)cnc4n(-c4cccc(-c5ccc(CN6CCN(C(C)C)CC6)cc5)c4)c3=O)CC2)cc1
**Result** 0.20

**Query** Check the records and state log10(IC50) for O=c1c2cc(F)cnc2n(-c2cccc(-c3cc(O)ccc3CN3CCOCC3)c2)c(=O)n1[C@H]1CC[C@@H](NCc2cn3cc(F)ccc3n2)CC1
**Result** -1.00

**Query** Check the records and state log10(IC50) for Cc1cc(C(=O)N[C@H]2CC[C@@H](n3c(=O)c4cc(F)cnc4n(-c4cccc(-c5ccc(CN6CCC(N7CCCC7)CC6)cc5)c4)c3=O)CC2)nn1C
**Result** -1.60
